Data credit: patent US10611740B2

Biological target: RORγ-LBD (Homo sapiens, UniProt P51449)
Construct: made in house; host or cells: SF9 cells (baculovirus)
Sequence (P51449 269-508 limits assumed): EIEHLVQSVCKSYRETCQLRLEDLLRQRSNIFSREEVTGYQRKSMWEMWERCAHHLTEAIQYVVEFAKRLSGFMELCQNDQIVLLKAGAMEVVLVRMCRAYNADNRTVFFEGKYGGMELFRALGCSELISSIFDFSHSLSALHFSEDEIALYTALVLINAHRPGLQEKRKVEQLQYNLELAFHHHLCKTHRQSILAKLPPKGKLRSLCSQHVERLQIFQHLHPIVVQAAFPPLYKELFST
Test: RORγ-Ligand Binding Domain (LBD) TR-FRET Assay
Type: biochemical
pEC50: −log10 of the molar value.
Some molecules, each annotated with its measured pEC50.

1. CC(C)c1cccc(S(=O)(=O)N2C[C@H](CCc3n[nH]c(=O)o3)Oc3ccc(-c4cc(F)ccc4F)cc32)c1 [Compound 28D] ... > 6.30
2. O=C(O)[C@H]1C[C@@H]([C@H]2CN(S(=O)(=O)c3cccc(C(F)(F)F)c3)c3cc(-c4cc(F)cc(OC(F)F)c4)ccc3O2)C1 [Compound 60J] ... > 6.30
3. Cn1cc(C(=O)NC[C@H]2CN(S(=O)(=O)c3cccc(C(F)(F)F)c3)c3cc(-c4cc(F)cc(OC(F)F)c4)ccc3O2)c(C(F)(F)F)n1 [Compound 30CZ] ... > 6.30
4. O=C(O)[C@]1(C[C@H]2CN(S(=O)(=O)c3cccc(C(F)(F)F)c3)c3cc(-c4cc(F)ccc4F)ccc3O2)CCNC1=O [Compound 77A] ... > 6.30
5. NS(=O)(=O)CCC(=O)NC[C@H]1CN(S(=O)(=O)c2cccc(C(F)(F)F)c2)c2cc(-c3cc(F)ccc3F)ccc2O1 [Compound 30AL] ... > 6.30

Q: Given Cc1nnc(-c2ccc3c(c2)N(S(=O)(=O)c2cccc(C(F)(F)F)c2)C[C@H](CCC(=O)O)O3)s1 [Compound 2AZ] , state its recorded pEC50.
Result: < 5.00

Q: O=C(O)CC[C@H]1CN(S(=O)(=O)c2cccc(C(F)(F)F)c2)c2cc(-c3cnn4ccccc34)ccc2O1 [Compound 4O] , same question.
Result: > 6.30

Q: Cc1ccc(F)c(-c2ccc3c(c2)N(S(=O)(=O)c2cccc(C(F)(F)F)c2)C[C@H](CCC(=O)O)O3)c1 [Compound 2BL] , same question.
Result: > 6.30
